tested on: HEK-293T; assay: Multiplex assay against HEK293T; format: toxicity, cell-based; conditions: human, 12 h, 1 µM, compound concentration 1 uM, replicate 1
Let's look at some compounds and their measured Population Hoechst High Intensity Objects (%).
measurement_kind: Population Hoechst High Intensity Objects (%)

compound="COc1cc2ncn(-c3cc(OCc4ccccc4C(F)(F)F)c(C(N)=O)s3)c2cc1OC [GW843682X]" unit_of_measure=% readout_value=13
compound=CC(C)c1noc(N2CCC(COc3ccc(-c4ccc(S(C)(=O)=O)cc4)nc3)CC2)n1 unit_of_measure=% readout_value=14
compound=O=c1[nH]c2ccccc2n1C1CCN(Cc2ccc(-c3[nH]c4cc5ncnc5cc4nc3-c3ccccc3)cc2)CC1 unit_of_measure=% readout_value=7
compound=C[C@]12CC[C@@H]3c4ccc(O)cc4CC[C@H]3[C@@H]1CC[C@@H]2O unit_of_measure=% readout_value=14
compound=Cl.O=C(O)c1cc(-c2ccc(C3CCNCC3)cc2)c2ccc(-c3ccc(C(F)(F)F)cc3)cc2c1 unit_of_measure=% readout_value=19
compound=O=c1cc(N2CCOCC2)oc2c(-c3cccc4c3sc3ccccc34)cccc12 unit_of_measure=% readout_value=12
compound=C=CC(=O)Nc1cccc(Oc2nc(Nc3ccc(N4CCN(C)CC4)cc3OC)ncc2Cl)c1 unit_of_measure=% readout_value=18
compound=CNC(=O)Nc1ccc(-c2nc(N3CC4CCC(C3)O4)c3cnn(C4CCC5(CC4)OCCO5)c3n2)cc1 unit_of_measure=% readout_value=20
compound=CC(C)(C)NC[C@H](O)COc1nsnc1N1CCOCC1 unit_of_measure=% readout_value=14
compound="CCc1nn(CCCN2CCN(c3cccc(Cl)c3)CC2)c(=O)n1CCOc1ccccc1.Cl [NEFAZODONE HYDROCHLORIDE]" unit_of_measure=% readout_value=10

###

tested on: Fibroblast; test: Multiplex assay against human fibroblast; type: toxicity, cell-based; conditions: 12 h, 10 µM, compound concentration 10 uM, replicate 1
Let's look at some molecules and their measured Population Mitotic Cells (%).
measurement_kind: Population Mitotic Cells (%)

molecule=Cc1nc(N2CC[C@H](O)C2)ncc1-c1cc(C(F)(F)F)cc2[nH]ncc12 readout_value=33
molecule=C[C@]12CC[C@@H]3c4ccc(O)cc4CC[C@H]3[C@@H]1CC[C@@H]2O readout_value=25
molecule=Cl.O=C(O)c1cc(-c2ccc(C3CCNCC3)cc2)c2ccc(-c3ccc(C(F)(F)F)cc3)cc2c1 readout_value=37
molecule=C=CC(=O)Nc1cccc(Oc2nc(Nc3ccc(N4CCN(C)CC4)cc3OC)ncc2Cl)c1 readout_value=37
molecule=CCCSc1nc(N[C@@H]2C[C@H]2c2ccc(F)c(F)c2)c2nnn([C@@H]3C[C@H](OCCO)[C@@H](O)[C@H]3O)c2n1 readout_value=43
molecule=CNC(=O)Nc1ccc(-c2nc(N3CC4CCC(C3)O4)c3cnn(C4CCC5(CC4)OCCO5)c3n2)cc1 readout_value=50
molecule=CC(C)OC(=O)N1CCC(Oc2ncnc3c2cnn3-c2ccc(S(C)(=O)=O)cc2F)CC1 readout_value=41
molecule="Cc1ccc2c(c1)c1c(n2CCc2ccc(C)nc2)CCN(C)C1 [LATREPIRDINE]" readout_value=44
molecule="O=C(c1cc2c(cc1F)OC(c1ccc(F)cc1)(c1ccc(Cl)cc1Cl)O2)N1CCOCC1 (stereo not drawn)" readout_value=28
molecule=CC(C)(C)NC[C@H](O)COc1nsnc1N1CCOCC1 readout_value=39
molecule=COC(=O)C1=C(C)NC(C)=C(C(=O)OCCCN2CCC(c3ccccc3)(c3ccccc3)CC2)[C@H]1c1cccc([N+](=O)[O-])c1 readout_value=34
molecule=CNC(=O)Nc1ccc2c(c1)[C@@]1(CC2)OC(=O)N(CC(=O)N(Cc2ccc(F)cc2)[C@@H](C)C(F)(F)F)C1=O readout_value=45
molecule=CC(C)CC(=O)Nc1[nH]nc2c1CN(C(=O)C1CCN(C)CC1)C2(C)C readout_value=26
molecule=COc1ccccc1CN[C@H]1C2CCN(CC2)[C@H]1C(c1ccccc1)c1ccccc1 readout_value=32
molecule=CCc1ccc(OCc2ccccc2C(=O)Nc2ccc3nc(C)cc(N)c3c2)cc1.Cl readout_value=73
molecule=COc1ccc(-c2ccc3ncc4c(c3c2)n(-c2ccc(N3CCNCC3)c(C(F)(F)F)c2)c(=O)n4C)cn1.O=C(O)/C=C\C(=O)O readout_value=37
molecule=CC(C)Oc1ccccc1C(=O)Nc1ccccc1C(=O)Nc1cccc(S(=O)(=O)C(F)(F)F)c1 readout_value=38
molecule=Cc1c[nH]c2nccc(Oc3c(F)cc(Nc4cc(Cl)nc(N)n4)cc3F)c12 readout_value=33
molecule=C=CC(=O)Nc1ccc2[nH]c(=O)n(C3CCN(Cc4ccc(-c5nc6cc[nH]c(=O)c6cc5-c5ccccc5)cc4)CC3)c2c1 readout_value=39
molecule=CC(C)c1noc(N2CCC(COc3ccc(-c4ccc(S(C)(=O)=O)cc4)nc3)CC2)n1 readout_value=48
molecule=O=c1[nH]c2ccccc2n1C1CCN(Cc2ccc(-c3[nH]c4cc5ncnc5cc4nc3-c3ccccc3)cc2)CC1 readout_value=32
molecule="COc1cc2ncn(-c3cc(OCc4ccccc4C(F)(F)F)c(C(N)=O)s3)c2cc1OC [GW843682X]" readout_value=45
molecule="Cc1cccc(CN2CCN(C(c3ccccc3)c3ccc(Cl)cc3)CC2)c1.Cl.Cl (stereo not drawn)" readout_value=38

###

Let's look at some molecules and their measured Population Apoptotic (%).
test system: Fibroblast; assay: Multiplex assay against human fibroblast; type: toxicity, cell-based; details: 12 h, 1 µM, compound concentration 1 uM, replicate 2
measurement_kind: Population Apoptotic (%)

sample_smiles=O=c1cc(N2CCOCC2)oc2c(-c3cccc4c3sc3ccccc34)cccc12 readout_value=100
sample_smiles=CNC(=O)Nc1ccc2c(c1)[C@@]1(CC2)OC(=O)N(CC(=O)N(Cc2ccc(F)cc2)[C@@H](C)C(F)(F)F)C1=O readout_value=75
sample_smiles=COC(=O)C1=C(C)NC(C)=C(C(=O)OCCCN2CCC(c3ccccc3)(c3ccccc3)CC2)[C@H]1c1cccc([N+](=O)[O-])c1 readout_value=91

###

test system: U2OS; experiment: Multiplex assay against U2OS; type: toxicity, cell-based; details: human, 24 h, 1 µM, compound concentration 1 uM, replicate 1
measurement_kind: Total Cell Count

compound=C=CC(=O)Nc1ccc2[nH]c(=O)n(C3CCN(Cc4ccc(-c5nc6cc[nH]c(=O)c6cc5-c5ccccc5)cc4)CC3)c2c1 readout_value=220
compound=CC(C)OC(=O)N1CCC(Oc2ncnc3c2cnn3-c2ccc(S(C)(=O)=O)cc2F)CC1 readout_value=123
compound=CNC(=O)Nc1ccc(-c2nc(N3CC4CCC(C3)O4)c3cnn(C4CCC5(CC4)OCCO5)c3n2)cc1 readout_value=98
compound="Cc1ccc2c(c1)c1c(n2CCc2ccc(C)nc2)CCN(C)C1 [LATREPIRDINE]" readout_value=166
compound="Cc1cccc(CN2CCN(C(c3ccccc3)c3ccc(Cl)cc3)CC2)c1.Cl.Cl (stereo unspecified)" readout_value=176
compound="O=C(c1cc2c(cc1F)OC(c1ccc(F)cc1)(c1ccc(Cl)cc1Cl)O2)N1CCOCC1 (stereo unspecified)" readout_value=130
compound=COc1ccc(-c2ccc3ncc4c(c3c2)n(-c2ccc(N3CCNCC3)c(C(F)(F)F)c2)c(=O)n4C)cn1.O=C(O)/C=C\C(=O)O readout_value=181
compound=C[C@]12CC[C@@H]3c4ccc(O)cc4CC[C@H]3[C@@H]1CC[C@@H]2O readout_value=140
compound=CN1CCN(Cc2ccc(Nc3ncc(Cl)c(Nc4ccccc4S(=O)(=O)N(C)C)n3)cc2)CC1 readout_value=188
compound="Cc1ccccc1C(c1ccccc1C)N1C2CCC1CC(O)(c1ccccc1)C2 (stereo unspecified)" readout_value=149
compound="COc1cc2ncn(-c3cc(OCc4ccccc4C(F)(F)F)c(C(N)=O)s3)c2cc1OC [GW843682X]" readout_value=166

###

Let's look at some compounds and their measured Population Pyknosed Nuclei (%).
tested on: Fibroblast; test: Multiplex assay against human fibroblast; assay type: toxicity, cell-based; settings: 24 h, 1 µM, compound concentration 1 uM, replicate 2
measurement_kind: Population Pyknosed Nuclei (%)

compound=COc1ccccc1CN[C@H]1C2CCN(CC2)[C@H]1C(c1ccccc1)c1ccccc1 measurement_target=Fibroblast measurement_kind="Population Pyknosed Nuclei (%)" readout_value=9
compound=C=CC(=O)Nc1ccc2[nH]c(=O)n(C3CCN(Cc4ccc(-c5nc6cc[nH]c(=O)c6cc5-c5ccccc5)cc4)CC3)c2c1 measurement_target=Fibroblast measurement_kind="Population Pyknosed Nuclei (%)" readout_value=2
compound="Cc1ccc2c(c1)c1c(n2CCc2ccc(C)nc2)CCN(C)C1 [LATREPIRDINE]" measurement_target=Fibroblast measurement_kind="Population Pyknosed Nuclei (%)" readout_value=8

###

system: HEK-293T; assay: Multiplex assay against HEK293T; format: toxicity, cell-based; conditions: human, 24 h, 10 µM, compound concentration 10 uM, replicate 2
Let's look at some compounds and their measured Population Membrane Permeable-Phenotype (%).
measurement_kind: Population Membrane Permeable-Phenotype (%)

sample_smiles=CNC(=O)Nc1ccc2c(c1)[C@@]1(CC2)OC(=O)N(CC(=O)N(Cc2ccc(F)cc2)[C@@H](C)C(F)(F)F)C1=O readout_value=7
sample_smiles=C=CC(=O)Nc1cccc(Oc2nc(Nc3ccc(N4CCN(C)CC4)cc3OC)ncc2Cl)c1 readout_value=7
sample_smiles=C=CC(=O)Nc1cccc(Sc2nc(Nc3ccc(N4CCN(C)CC4)cc3)ncc2Cl)c1 readout_value=7
